Tested on: HOP-18 NSCLC
Assay: NCI tumour cell line growth inhibition, 48 h
For each of the compounds below, state its TGI.

Enter reported TGI observed with HOP-18 NSCLC for Brc1ccc2[nH]c3c(C4=NCCC4)nccc3c2c1
> 85.8 µM

Cc1nc2ccc(NCCN(C)C)c3c(=O)c4ccccc4n1c23 , same question.
51.2 µM

Same lookup for CCOc1ccc(C2=NN(CC)C(=O)C(C3C(=O)N(c4ccccc4)N=C3C)C2)cc1 (stereo not given) , please.
> 100 µM

Same read-out for COC(=O)C1=NC(=S)NC(c2ccccc2)C1c1nc2ccccc2o1 (stereo not given) ?
> 50 µM

How about this compound: O=C1/C(=C/c2ccc(Cl)cc2)CCC1CNc1ccc(Cl)cc1 (stereo not given)
> 74.5 µM

How about COC(=O)C(=O)C(C(=O)C(=O)Nc1ccc([N+](=O)[O-])cc1)c1nc2ccccc2[nH]c1=O (stereo not given) ?
> 100 µM

Try C=CCNC(=S)NNC(=O)c1c(C)nc2sccn12 next.
> 100 µM

Entry to check: C/C=C/C=C/c1cc2cc3c(c(O)c2c(=O)[nH]1)C1(CC3)C(O)=c2c(=O)c3c(=O)cc(OC)c(=O)c=3c(=O)c2=C1O (stereo not given)
7.47 µM

Next entry: C/C(=C\C(=O)Nc1ccc2n[nH]nc2c1)Nc1ccc2n[nH]nc2c1
> 100 µM

Please do the same for Cc1ccc(C)c2c1C1CCCCC3(OCCCO3)C21O (stereo not given) as well.
> 100 µM

* * *

System: SR leukemia
Assay: NCI tumour cell line growth inhibition, 48 h; in the data active = GI50 below about 0.43 µM; inactive = the rest
Your reply should match one of these outcome classes. True (active), False (inactive)

Hi, sorry to bother you, what did the test record for CN(C)CCCN1c2ccccc2Sc2ccc(C(F)(F)F)cc21 ?
False

Query O=C(Nc1cccc(-n2ccc3c(NC(=O)c4ccccc4)ncnc32)c1)Nc1ccc(Cl)c(C(F)(F)F)c1 next
False

Let us now turn to CC[C@H](C)[C@H](NC(=O)C12C3C4C1C1C2C3C41NC)C(=O)N(C)[C@H](C[C@@H](OC(C)=O)c1nc(C(=O)N[C@@H](Cc2ccccc2)C[C@H](C)C(=O)OC)cs1)C(C)C (some centres undefined)
True

Try this compound next: Cn1cc(-c2cc(-c3cn(C)c4ccccc34)[nH]n2)c2ccccc21
False

* * *

Record form. Attribute: TGI. Fill in for each entry.
Tested on: ACHN renal
Assay: NCI tumour cell line growth inhibition, 48 h
# value in µM; strip the unit string

Which TGI reading was recorded for the molecule COc1cc(N=Nc2cc(Cc3ccc(N(C)C)cc3)c(N)cc2N(C)C)c2ncccc2c1 ?
1.69

Consider next the molecule O=C(Nc1cccc(-n2ccc3c(NC(=O)c4ccccc4)ncnc32)c1)Nc1ccc(Cl)c(C(F)(F)F)c1 in the same way.
7.38

Same again, this time with S=c1ssnc1-c1cc2ccccc2o1
38.8

* * *

System: U251 CNS
Assay: NCI tumour cell line growth inhibition, 48 h
result type: TGI

Name the recorded TGI for Cc1nn2c(=O)c([N+](=O)[O-])c(/C=C/c3ccc(F)cc3)nc2s1 .
14.6 µM

Same question, CC(=O)N[C@@H](Cc1ccc(O)cn1)C(=O)NCc1ccc(Cl)cc1 this time
> 100 µM

Please do the same for C=CCC(N[C@@H](CO)c1ccccc1)c1ccc2ccccc2n1 (stereo not given in full) as well.
> 100 µM

Next: Cc1ccc(S(=O)(=O)N/N=C2\C=CC3(CC2)C(=O)N(I)c2ccccc23)cc1 (stereo not given)
> 100 µM

Let us now turn to CN(C)S(=O)(=O)c1ccc2[nH]c(O)c(C3=Nc4ccccc4C3=O)c2c1
24.9 µM

Also check CCn1c(-c2nonc2N)nc2ccccc21
> 25 µM

Follow-up entry: N=C(N)c1ccc2oc3ccc(C(=N)N)cc3c(=O)c2c1
> 100 µM

Also need C=C1C(=O)OC2CC(C)C(/C=C/C(C)=O)=CCC12 (stereo not given) , thanks.
> 100 µM

Try OCCc1ccsc1-c1sc(-c2cc(CCO)c(-c3sc(-c4cc(CCO)c(-c5sccc5CCO)s4)cc3CCO)s2)cc1CCO next.
2.6 µM

Record: C=C1OC2OC(C)C(NC(=O)OCC(Cl)(Cl)Cl)C(OC(C)=O)C2O1 (stereo not given)
> 100 µM
